- measurementTarget: UniProtKB P07858
- experimentalProtocol: Enzymatic isoform-selectivity assay, Cat-B
readoutName: IC50

**Query** I'd like to know its IC50. The compound in question is "Cn1cc(-c2ccc(S(=O)(=O)[C@@H]3C[C@@H](C(=O)NC4(C#N)CC4)N(C(=O)C4(C(F)(F)F)CC4)C3)c(C(F)(F)F)c2)cn1"
**Result** > 1000 nM

====

- measurementTarget: Human Cat-K (Homo sapiens)
- Sequence (P43235 115-329): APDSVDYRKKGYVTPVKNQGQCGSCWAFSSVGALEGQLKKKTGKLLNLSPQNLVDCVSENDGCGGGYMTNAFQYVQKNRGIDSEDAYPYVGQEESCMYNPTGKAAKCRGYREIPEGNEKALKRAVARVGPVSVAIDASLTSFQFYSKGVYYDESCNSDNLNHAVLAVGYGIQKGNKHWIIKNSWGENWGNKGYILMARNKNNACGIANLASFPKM
- experimentalProtocol: Enzymatic isoform-selectivity assay, Cat-K
pIC50: −log10 of the molar value.
readoutName: pIC50

**Query** Item: "Cn1cc(-c2ccc(S(=O)(=O)[C@@H]3C[C@@H](C(=O)NC4(C#N)CC4)N(C(=O)C4(C(F)(F)F)CC4)C3)c(C(F)(F)F)c2)cn1" Test system: Human Cat-K (Homo sapiens) Read-out: pIC50 Value: ?
**Result** < 6.00
